- assayTarget: JAK3 (Homo sapiens)
- Sequence (P52333 1-1124): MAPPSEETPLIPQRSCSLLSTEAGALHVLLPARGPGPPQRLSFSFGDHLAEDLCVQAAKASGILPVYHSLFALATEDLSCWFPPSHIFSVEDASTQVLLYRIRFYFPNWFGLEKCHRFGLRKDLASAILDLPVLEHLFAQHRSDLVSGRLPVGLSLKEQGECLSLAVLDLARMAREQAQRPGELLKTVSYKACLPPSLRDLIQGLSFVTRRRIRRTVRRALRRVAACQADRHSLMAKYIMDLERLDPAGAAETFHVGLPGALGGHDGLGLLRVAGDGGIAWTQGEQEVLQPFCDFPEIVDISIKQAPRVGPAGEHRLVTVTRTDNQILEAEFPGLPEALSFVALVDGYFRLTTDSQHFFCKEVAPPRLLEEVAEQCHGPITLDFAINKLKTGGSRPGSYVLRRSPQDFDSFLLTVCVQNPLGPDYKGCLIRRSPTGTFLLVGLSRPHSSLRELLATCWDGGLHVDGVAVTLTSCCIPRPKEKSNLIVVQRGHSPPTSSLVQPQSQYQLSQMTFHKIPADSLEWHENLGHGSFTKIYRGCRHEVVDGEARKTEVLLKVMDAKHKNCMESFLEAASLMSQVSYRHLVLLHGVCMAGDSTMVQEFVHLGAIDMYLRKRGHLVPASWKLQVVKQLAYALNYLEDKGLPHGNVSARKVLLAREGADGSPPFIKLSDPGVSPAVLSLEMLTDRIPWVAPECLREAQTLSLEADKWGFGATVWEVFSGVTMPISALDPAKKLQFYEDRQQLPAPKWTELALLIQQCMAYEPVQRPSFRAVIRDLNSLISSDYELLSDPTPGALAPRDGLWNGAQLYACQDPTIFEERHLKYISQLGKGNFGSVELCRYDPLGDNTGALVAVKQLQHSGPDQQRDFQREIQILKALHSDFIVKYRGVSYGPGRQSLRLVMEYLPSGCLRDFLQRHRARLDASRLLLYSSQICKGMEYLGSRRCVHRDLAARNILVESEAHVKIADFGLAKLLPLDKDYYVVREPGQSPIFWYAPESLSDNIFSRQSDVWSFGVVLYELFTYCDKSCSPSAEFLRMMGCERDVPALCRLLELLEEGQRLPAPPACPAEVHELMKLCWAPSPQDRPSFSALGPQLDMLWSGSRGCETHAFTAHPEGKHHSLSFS
- protocolSummary: JAK LanthaScreen Kinase Assay (TR-FRET), JAK3
- Type: biochemical
- cond: enzyme assay, 2 micromolar ATP, n=6; read-out: IC50 against JAK3
measuredEndpoint: pIC50
Value format note: pIC50 is -log10 of concentration (mol/L); just state the number.

### Prompt Provide pIC50, system JAK3 (Homo sapiens), entry Cc1cc(Nc2ccc3ncn([C@@H]4CCc5ccc(F)cc54)c3n2)[nH]n1.Cl.Cl [Example 1, dihydrochloride]
### Response 8.10
